Measured viability at 28.5 h, 10 µM values are reported for all entries that follow.
PROTOCOL DETAILS: in vitro
CONDITION SUMMARY: human, hela cells, % viability
Note: unit % is implicit; provide only the numeric part.

Past entries and their recorded results:
COc1ccccc1N1CCN(C(=O)NCc2cnc(C)cn2)CC1 ... 105
Cc1nc2ccccn2c1CN1CCC(Oc2ccc(F)cc2)CC1 ... 90.1
Cc1sc(C(=O)Nc2ccc3ccccc3c2)cc1CC(=O)O ... 96.4
O=C(O)CC(Cc1ccc(Cl)cc1)C(=O)Nc1ccccc1I (stereo not shown) ... 90

Entry COC(=O)c1c(NC(=O)c2cnccn2)sc2c1CCC(C)C2 (stereo not shown) has what viability at 28.5 h, 10 µM?
96.2

# get_value(readout='viability at 28.5 h, 10 µM', item= CC(Cn1cncn1)C(=O)N1CCCCC1CCc1ccccc1 (stereo not shown) )
109

I'd like to know its viability at 28.5 h, 10 µM. The molecule in question is Cc1ccn(CCNC(=O)CSc2nccc3ccccc23)n1
104

Bench note: what viability at 28.5 h, 10 µM did N#CCCN(C(=O)Nc1ccc2c(c1)OCCO2)C1CCCCC1 show?
92.3

// query viability at 28.5 h, 10 µM value for entry O=C(Oc1cccc2cccnc12)c1ccc(Br)o1
89.4

Dear colleague, I am looking for the recorded viability at 28.5 h, 10 µM of the following molecule: CC(C)(C)NC(=O)Cn1ccc2ccnc(-c3cccs3)c21
94.1

* * *

PROTOCOL DETAILS: in vitro
CONDITION SUMMARY: human, hela cells, % viability
READOUT LABEL: viability at 28.5 h, 10 µM (%)
Express your answer in %, writing the number without its unit.

Worked set:
O=S(=O)(NCCSc1nnnn1-c1ccccc1)c1cccs1 [CBK268013] ... 112
Cc1cccc(OCCn2c(SCCC(=O)O)nc3ccccc32)c1 [CBK264682] ... 93.5
CCn1c(=O)n(CC(=O)N2CCC(C)CC2)c2cccnc21 [CBK283895] ... 95.9
Cc1c(NCc2ccccn2)cccc1C(=O)O [CBK269651] ... 86.9

Need viability at 28.5 h, 10 µM, item COc1cc(C2CC(=O)Nc3nc(N)[nH]c(=O)c32)ccc1OCc1ccc(F)cc1 (centres unmarked) [CBK293980]
84.8

* * *

PROTOCOL DETAILS: in vitro
CONDITION SUMMARY: human, hela cells, % viability
READOUT LABEL: viability at 28.5 h, 10 µM (%)
Numbers only here, please. The scale is %.

O=C(c1cc2cc(Cl)ccc2[nH]1)N1CCN(c2ccccn2)CC1 ... 93.7
O=C(NC1CCS(=O)(=O)C1)c1c[nH]c2ccccc2c1=O (centres unmarked) ... 88.7
CN(C)c1ccc(-c2cc(N3CCN(S(=O)(=O)c4ccc(Cl)cc4)CC3)ncn2)cc1 ... 93.5
CCN(CC)C(=O)Cn1nc(C)n2c(cc3oc(C)cc32)c1=O ... 93.7
CN(C)CCN1CCN(c2ccc(-c3ccsc3)cn2)CC1 ... 96.2
CCN(CC)C(=O)C1CCCN(C(=O)NCC(c2ccccc2)c2ccccc2)C1 (centres unmarked) ... 94.4
COc1ccc(S(=O)(=O)N(CC(=O)O)C2CCCCC2)cc1Cl ... 81.5
CCCc1cc(C(=O)NC(c2ccccc2)c2cccnc2)[nH]n1 (centres unmarked) ... 93.8

What viability at 28.5 h, 10 µM value was documented for this molecule, c1cnc2c(c1)cc([C@H]1CCCO1)n2CCN1CCCC1 ?
91.9

What value of viability at 28.5 h, 10 µM has been reported for the following molecule? CC(=O)N1CCc2nc(CC3CC3)nc(NCCn3ccnn3)c2CC1
94.7
